Source of measurements: ChEMBL document CHEMBL3616373

Quick list: pEC50 per entry.
target: Oxysterols receptor LXR-beta (Homo sapiens); assay: Antagonist activity at GAL4-fused human LXRbeta expressed in HEK293 cells assessed as inhibition of T0901317-stimulated transcriptional activity after 20 hrs by dual-glo luciferase reporter gene assay
Sequence (P55055 whole entry, the tested form may be a part): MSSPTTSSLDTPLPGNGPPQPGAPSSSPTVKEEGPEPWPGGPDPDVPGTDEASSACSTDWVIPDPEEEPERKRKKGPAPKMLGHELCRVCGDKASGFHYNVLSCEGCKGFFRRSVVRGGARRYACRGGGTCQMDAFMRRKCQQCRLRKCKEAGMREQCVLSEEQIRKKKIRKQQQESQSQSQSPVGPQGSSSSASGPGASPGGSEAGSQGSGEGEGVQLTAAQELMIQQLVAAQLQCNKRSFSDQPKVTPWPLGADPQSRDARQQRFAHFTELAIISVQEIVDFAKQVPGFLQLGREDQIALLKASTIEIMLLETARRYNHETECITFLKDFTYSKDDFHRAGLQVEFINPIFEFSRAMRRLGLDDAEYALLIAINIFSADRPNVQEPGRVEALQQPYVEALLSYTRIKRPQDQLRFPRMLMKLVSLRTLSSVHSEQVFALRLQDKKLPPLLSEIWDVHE
pEC50: −log10 of the molar value.
measured attribute: pEC50

smiles notation: O=C(Nc1ccc2c(c1)N(S(=O)(=O)c1ccc(F)cc1)CCC2)c1ccccc1Cl
endpoint result: 5.42
//
smiles notation: O=C(Nc1ccc2c(c1)N(S(=O)(=O)c1ccc(F)cc1)CC2)c1c(F)cccc1F
endpoint result: 5.24
//
smiles notation: O=C(Nc1ccc2c(c1)N(S(=O)(=O)c1ccc(F)cc1)CCC2)c1c(F)cccc1F
endpoint result: 5.49
//
smiles notation: O=C(Nc1ccc2c(c1)N(S(=O)(=O)c1ccc(F)cc1)CCC2)c1c(F)cccc1Cl
endpoint result: 5.59

###

Quick list: EC50 per entry.
biological target: Bile acid receptor (Homo sapiens); experiment: Antagonist activity at GAL4-fused human FXR expressed in HEK293 cells assessed as inhibition of T0901317-stimulated transcriptional activity after 20 hrs by dual-glo luciferase reporter gene assay
Sequence (Q96RI1 whole entry, the tested form may be a part): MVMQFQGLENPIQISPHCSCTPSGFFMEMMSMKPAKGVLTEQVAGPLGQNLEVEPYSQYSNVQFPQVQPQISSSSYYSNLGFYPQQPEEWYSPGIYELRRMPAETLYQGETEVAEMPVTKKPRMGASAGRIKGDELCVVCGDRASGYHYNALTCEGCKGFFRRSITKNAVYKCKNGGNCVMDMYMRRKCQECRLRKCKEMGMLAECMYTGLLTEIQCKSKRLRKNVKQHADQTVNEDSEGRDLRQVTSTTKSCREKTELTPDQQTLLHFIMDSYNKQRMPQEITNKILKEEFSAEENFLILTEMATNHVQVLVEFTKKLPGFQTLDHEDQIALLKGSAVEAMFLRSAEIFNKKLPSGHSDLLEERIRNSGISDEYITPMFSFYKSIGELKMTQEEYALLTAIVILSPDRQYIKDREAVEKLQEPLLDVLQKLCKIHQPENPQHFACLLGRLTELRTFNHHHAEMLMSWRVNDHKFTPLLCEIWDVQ
measured attribute: EC50

smiles notation: O=C(Nc1ccc2c(c1)N(S(=O)(=O)c1ccc(F)cc1)CCC2)c1c(F)cccc1F
target desc: Bile acid receptor (Homo sapiens)
endpoint result: 7.6 µM

smiles notation: O=C(Nc1ccc2c(c1)N(S(=O)(=O)c1ccc(F)cc1)CCC2)c1ccccc1Cl
target desc: Bile acid receptor (Homo sapiens)
endpoint result: 5.9 µM

smiles notation: O=C(Nc1ccc2c(c1)N(S(=O)(=O)c1ccc(F)cc1)CC2)c1c(F)cccc1F
target desc: Bile acid receptor (Homo sapiens)
endpoint result: 4.2 µM

smiles notation: O=C(Nc1ccc2c(c1)N(S(=O)(=O)c1ccc(F)cc1)CCC2)c1c(F)cccc1Cl
target desc: Bile acid receptor (Homo sapiens)
endpoint result: 5.3 µM

###

target: Nuclear receptor ROR-beta (Homo sapiens); assay: Inverse agonist activity at GAL4-fused human RORb expressed in HEK293 cells assessed as suppression of basal transcriptional activity after 20 hrs by dual-glo luciferase reporter gene assay
Sequence (Q92753 whole entry, the tested form may be a part): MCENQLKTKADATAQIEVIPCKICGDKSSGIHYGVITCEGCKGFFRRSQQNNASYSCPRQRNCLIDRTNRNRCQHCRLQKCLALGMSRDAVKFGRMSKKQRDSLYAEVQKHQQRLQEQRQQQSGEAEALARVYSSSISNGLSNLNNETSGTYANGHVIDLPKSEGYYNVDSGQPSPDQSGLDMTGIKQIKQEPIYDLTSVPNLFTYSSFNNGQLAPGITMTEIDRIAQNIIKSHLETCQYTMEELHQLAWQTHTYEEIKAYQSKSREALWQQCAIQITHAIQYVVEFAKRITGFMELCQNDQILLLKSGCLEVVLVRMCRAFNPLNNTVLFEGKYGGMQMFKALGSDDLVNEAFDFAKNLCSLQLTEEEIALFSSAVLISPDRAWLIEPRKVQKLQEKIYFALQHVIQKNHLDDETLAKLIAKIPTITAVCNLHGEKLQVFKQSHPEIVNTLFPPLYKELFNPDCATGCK

smiles notation: O=C(Nc1ccc2c(c1)N(S(=O)(=O)c1ccc(F)cc1)CCC2)c1c(F)cccc1Cl
EC50 [µM]: 3.4
--
smiles notation: O=C(Nc1ccc2c(c1)N(S(=O)(=O)c1ccc(F)cc1)CC2)c1c(F)cccc1F
EC50 [µM]: 7.9
--
smiles notation: O=C(Nc1ccc2c(c1)N(S(=O)(=O)c1ccc(F)cc1)CCC2)c1c(F)cccc1F
EC50 [µM]: 5.4
--
smiles notation: O=C(Nc1ccc2c(c1)N(S(=O)(=O)c1ccc(F)cc1)CCC2)c1ccccc1Cl
EC50 [µM]: 4.1

###

Quick list: Papp B→A at 1 h, 100 µM per entry.
test: Apparent permeability across basolateral to apical side in MDCK cells at 100 uM after 60 mins by HPLC analysis; type: ADME, cell-based, Canis lupus familiaris; settings: dog

smiles notation: O=C(Nc1ccc2c(c1)N(S(=O)(=O)c1ccc(F)cc1)CC2)c1c(F)cccc1F
uom: ×10⁻⁶ cm/s
Papp B→A at 1 h, 100 µM: 11
//
smiles notation: O=C(Nc1ccc2c(c1)N(S(=O)(=O)c1ccc(F)cc1)CCC2)c1c(F)cccc1Cl
uom: ×10⁻⁶ cm/s
Papp B→A at 1 h, 100 µM: 12
//
smiles notation: O=C(Nc1ccc2c(c1)N(S(=O)(=O)c1ccc(F)cc1)CCC2)c1ccccc1Cl
uom: ×10⁻⁶ cm/s
Papp B→A at 1 h, 100 µM: 15
//
smiles notation: O=C(Nc1ccc2c(c1)N(S(=O)(=O)c1ccc(F)cc1)CCC2)c1c(F)cccc1F
uom: ×10⁻⁶ cm/s
Papp B→A at 1 h, 100 µM: 14

###

target: Nuclear receptor subfamily 1 group I member 2 (Homo sapiens); assay: Antagonist activity at GAL4-fused human PXR expressed in HEK293 cells assessed as inhibition of T0901317-stimulated transcriptional activity after 20 hrs by dual-glo luciferase reporter gene assay
Sequence (O75469 whole entry, the tested form may be a part): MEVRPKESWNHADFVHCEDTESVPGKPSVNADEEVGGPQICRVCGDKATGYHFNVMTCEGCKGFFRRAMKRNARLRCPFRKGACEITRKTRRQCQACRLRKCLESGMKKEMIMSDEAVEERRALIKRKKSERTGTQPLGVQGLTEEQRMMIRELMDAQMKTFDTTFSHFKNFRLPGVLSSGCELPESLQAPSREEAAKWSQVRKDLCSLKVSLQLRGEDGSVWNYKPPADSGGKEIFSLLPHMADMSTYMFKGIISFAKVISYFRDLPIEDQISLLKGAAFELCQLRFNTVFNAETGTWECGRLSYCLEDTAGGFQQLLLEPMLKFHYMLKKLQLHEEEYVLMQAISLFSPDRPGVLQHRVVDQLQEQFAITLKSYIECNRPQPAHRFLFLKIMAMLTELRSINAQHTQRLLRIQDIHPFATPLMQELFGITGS
Quick list: EC50 per entry.

smiles notation: O=C(Nc1ccc2c(c1)N(S(=O)(=O)c1ccc(F)cc1)CCC2)c1c(F)cccc1Cl
target desc: Nuclear receptor subfamily 1 group I member 2 (Homo sapiens)
EC50 [nM]: 820
//
smiles notation: O=C(Nc1ccc2c(c1)N(S(=O)(=O)c1ccc(F)cc1)CC2)c1c(F)cccc1F
target desc: Nuclear receptor subfamily 1 group I member 2 (Homo sapiens)
EC50 [nM]: 4800
//
smiles notation: O=C(Nc1ccc2c(c1)N(S(=O)(=O)c1ccc(F)cc1)CCC2)c1c(F)cccc1F
target desc: Nuclear receptor subfamily 1 group I member 2 (Homo sapiens)
EC50 [nM]: 1100
//
smiles notation: O=C(Nc1ccc2c(c1)N(S(=O)(=O)c1ccc(F)cc1)CCC2)c1ccccc1Cl
target desc: Nuclear receptor subfamily 1 group I member 2 (Homo sapiens)
EC50 [nM]: 940

###

Quick list: Efficacy per entry.
molecular target: Nuclear receptor ROR-gamma (Homo sapiens) (UniProt P51449); experiment: Inverse agonist activity at N-terminal 6xHis-tagged human RORc ligand binding domain (241 to 486) expressed in bacterial expression system assessed as inhibition of SRC1 co-activator peptide recruitment after 3 hrs by TR-FRET analysis relative to apo-RORc ligand binding domain

smiles notation: O=C(Nc1ccc2c(c1)N(S(=O)(=O)c1ccc(F)cc1)CCC2)c1ccccc1
Efficacy, %: -89

smiles notation: O=C(Nc1ccc2c(c1)N(S(=O)(=O)c1ccc(F)cc1)CCC2)c1ccccc1Cl
Efficacy, %: -89

smiles notation: O=C(Nc1ccc2c(c1)N(S(=O)(=O)c1ccccc1)CCC2)c1c(F)cccc1F
Efficacy, %: -91

smiles notation: O=C(Nc1ccc2c(c1)N(S(=O)(=O)c1ccc(F)cc1)CCC2)c1ccc(F)cc1
Efficacy, %: -75

smiles notation: Cc1ccc(S(=O)(=O)N2CCCc3ccc(NC(=O)c4c(F)cccc4F)cc32)cc1
Efficacy, %: -95

smiles notation: O=C(Nc1ccc2c(c1)N(S(=O)(=O)c1ccc(F)cc1)CCC2)c1c(F)cccc1F
Efficacy, %: -99

smiles notation: O=C(Nc1ccc2c(c1)N(S(=O)(=O)c1ccc(F)cc1)CC2)c1c(F)cccc1F
Efficacy, %: -99

smiles notation: O=C(Nc1ccc2c(c1)N(S(=O)(=O)c1ccc(F)cc1)CCCC2)c1c(F)cccc1F
Efficacy, %: -96

smiles notation: O=S(=O)(Nc1ccc2c(c1)N(S(=O)(=O)c1ccc(F)cc1)CCC2)c1ccccc1
Efficacy, %: -77

smiles notation: O=C(Nc1ccc2c(c1)N(S(=O)(=O)c1ccc(F)cc1)CCC2)c1cccc(F)c1
Efficacy, %: -69

smiles notation: O=C(Nc1ccc2c(c1)N(S(=O)(=O)c1cccs1)CCC2)c1c(F)cccc1F
Efficacy, %: -77

smiles notation: O=C(Nc1ccc2c(c1)N(S(=O)(=O)c1ccc(F)cc1)CCC2)C1CC1
Efficacy, %: -63

smiles notation: O=C(Nc1ccc2c(c1)N(S(=O)(=O)c1ccc(F)cc1)CCC2)c1ccno1
Efficacy, %: -54

smiles notation: O=C(Nc1ccc2c(c1)N(S(=O)(=O)c1ccc(F)cc1)CCC2)c1c(F)cccc1Cl
Efficacy, %: -89

smiles notation: Cc1ccccc1C(=O)Nc1ccc2c(c1)N(S(=O)(=O)c1ccc(F)cc1)CCC2
Efficacy, %: -80

smiles notation: O=C(Nc1ccc2c(c1)N(S(=O)(=O)c1ccc(F)cc1)CCC2)c1ccncc1
Efficacy, %: -58

smiles notation: O=C(Nc1ccc2c(c1)N(S(=O)(=O)c1ccc(F)cc1)CCC2)c1ccccc1F
Efficacy, %: -81

###

target: Nuclear receptor ROR-gamma (Homo sapiens, UniProt P51449); experiment: Inverse agonist activity at N-terminal 6xHis-tagged human RORc ligand binding domain (241 to 486) expressed in bacterial expression system assessed as inhibition of SRC1 co-activator peptide recruitment after 3 hrs by TR-FRET analysis
Sequence (P51449 whole entry, the tested form may be a part): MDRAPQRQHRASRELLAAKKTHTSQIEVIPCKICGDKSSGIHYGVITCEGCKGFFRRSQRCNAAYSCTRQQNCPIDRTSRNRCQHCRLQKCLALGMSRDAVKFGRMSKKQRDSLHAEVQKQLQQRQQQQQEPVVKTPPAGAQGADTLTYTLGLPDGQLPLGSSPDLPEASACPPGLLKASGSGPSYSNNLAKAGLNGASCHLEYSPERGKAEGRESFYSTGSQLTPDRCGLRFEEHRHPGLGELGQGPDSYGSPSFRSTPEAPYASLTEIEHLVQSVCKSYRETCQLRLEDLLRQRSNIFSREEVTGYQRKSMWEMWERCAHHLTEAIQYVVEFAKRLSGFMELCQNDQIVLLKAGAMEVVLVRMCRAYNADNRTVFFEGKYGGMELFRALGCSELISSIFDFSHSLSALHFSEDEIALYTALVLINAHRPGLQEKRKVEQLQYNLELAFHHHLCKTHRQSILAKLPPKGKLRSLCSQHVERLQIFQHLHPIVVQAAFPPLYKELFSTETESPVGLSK
Quick list: EC50 per entry.

smiles notation: CC(=O)Nc1ccc2c(c1)N(S(=O)(=O)c1ccc(F)cc1)CCC2
relation sign: >
EC50 / nM: 10000
//
smiles notation: O=C(Nc1ccc2c(c1)CCN2S(=O)(=O)c1ccc(F)cc1)c1c(F)cccc1F
relation sign: >
EC50 / nM: 10000
//
smiles notation: O=C(Nc1ccc2c(c1)N(S(=O)(=O)c1ccc(F)cc1)CCC2)C1CC1
relation sign: =
EC50 / nM: 3600
//
smiles notation: O=C(Nc1ccc2c(c1)N(S(=O)(=O)c1ccc(F)cc1)CCC2)c1ccc(F)cc1
relation sign: =
EC50 / nM: 1700
//
smiles notation: O=C(Nc1ccc2c(c1)N(S(=O)(=O)c1ccc(F)cc1)CCC2)c1cnccn1
relation sign: >
EC50 / nM: 10000
//
smiles notation: O=S(=O)(Nc1ccc2c(c1)N(S(=O)(=O)c1ccc(F)cc1)CCC2)c1ccccc1
relation sign: =
EC50 / nM: 570
//
smiles notation: Cc1ccccc1C(=O)Nc1ccc2c(c1)N(S(=O)(=O)c1ccc(F)cc1)CCC2
relation sign: =
EC50 / nM: 120
//
smiles notation: O=C(Nc1ccc2c(c1)N(S(=O)(=O)c1cccs1)CCC2)c1c(F)cccc1F
relation sign: =
EC50 / nM: 2100
//
smiles notation: O=C(Nc1ccc2c(c1)CCCN2S(=O)(=O)c1ccc(F)cc1)c1c(F)cccc1F
relation sign: >
EC50 / nM: 10000
//
smiles notation: O=C(Nc1ccc2c(c1)N(S(=O)(=O)c1ccc(F)cc1)CCC2)c1ccccc1
relation sign: =
EC50 / nM: 550
//
smiles notation: O=C(Nc1ccc2c(c1)N(S(=O)(=O)c1ccc(F)cc1)CCC2)c1ccncc1
relation sign: =
EC50 / nM: 6800
//
smiles notation: O=C(Nc1ccc2c(c1)N(S(=O)(=O)c1ccc(F)cc1)CCC2)c1cccc(F)c1
relation sign: =
EC50 / nM: 470
//
smiles notation: O=C(Nc1ccc2c(c1)N(S(=O)(=O)c1ccc(F)cc1)CCCC2)c1c(F)cccc1F
relation sign: =
EC50 / nM: 230
//
smiles notation: O=C(Nc1ccc2c(c1)N(S(=O)(=O)c1ccc(F)cc1)CCC2)c1ccccc1F
relation sign: =
EC50 / nM: 420
//
smiles notation: O=C(Nc1ccc2c(c1)CCCCN2S(=O)(=O)c1ccc(F)cc1)c1c(F)cccc1F
relation sign: >
EC50 / nM: 10000
//
smiles notation: CS(=O)(=O)N1CCCc2ccc(NC(=O)c3c(F)cccc3F)cc21
relation sign: >
EC50 / nM: 10000
//
smiles notation: Cc1ccc(S(=O)(=O)N2CCCc3ccc(NC(=O)c4c(F)cccc4F)cc32)cc1
relation sign: =
EC50 / nM: 150
//
smiles notation: O=C(Nc1ccc2c(c1)N(C(=O)c1ccccc1)CCC2)c1c(F)cccc1F
relation sign: >
EC50 / nM: 10000
//
smiles notation: O=C(Nc1ccc2c(c1)N(S(=O)(=O)c1ccc(F)cc1)CC2)c1c(F)cccc1F
relation sign: =
EC50 / nM: 86
//
smiles notation: O=C(Nc1ccc2c(c1)N(S(=O)(=O)c1ccc(F)cc1)CCC2)c1ccno1
relation sign: =
EC50 / nM: 7400
//
smiles notation: O=C(Nc1ccc2c(c1)N(S(=O)(=O)c1ccccc1)CCC2)c1c(F)cccc1F
relation sign: =
EC50 / nM: 230
